The origin of these recorded values is the OligoGym collection.

Target: KRAS
Conditions: ASO, A431, 2 µM
After the bases stand the sugars from the 5' end (letter, count) and the backbone: PS all phosphorothioate, else s phosphorothioate and o phosphodiester by linkage. Methylation of C is not given here. e = 2'-O-(2-methoxyethyl) (MOE); k = constrained ethyl (cEt); d = 2'-deoxy (DNA)
Decision: target mRNA inhibition >= 30% yields 1, all other cases yield 0.

INSERT INTO measurements (record_sequence, cat) VALUES
  ('ACCAGTGTTAAGAGAA (sugars kkkdddddddddkeke, PS)', 1),
  ('CATTCAAAGTTCACAT (sugars k3 d10 k3, PS)', 0),
  ('GACTTGAAAAGTGTTT (sugars k3 d10 k3, PS)', 0);

**Q:** Determine whether this sequence has target mRNA inhibition no lower than 30%: TGGTGTAACATAGGTT (sugars kkddddddddddkeke, PS)
**A:** 1

**Q:** Dear colleague, could you confirm whether GTTTCACATAGCAATT (sugars k3 d10 k3, PS) has target mRNA inhibition at or above 30%?
**A:** 0

**Q:** # check: target mRNA inhibition of CATTACTTTTTGACAA (sugars k3 d10 k3, PS) is greater than or equal to 30%
**A:** 0
